- Tested target: UniProtKB Q9H8M2
- Assay protocol: Degradation of BRD9 (IF), immunofluorescence in MV4-11 cells, 24 hours (Assay Protocol 2)
- Format: cell-based
- Design: A suspension of MV4-11 cells (ATCC CRL-9591) was prepared; host or cells: MV4-11
- Condition info: MV4-11, Assay protocol 2; BRD9 degradation; read-out: Dmax
Recorded measurements of Dmax, one per entry

Solved entries (count: 4):
Q) Entry COc1cc(-c2cn(C)c(=O)c(C)c2C)cc(OC)c1CN1CCC(Cc2ccc3c(c2)C(C)N(C(=O)/C(C#N)=C/C(C)(C)C)CC3)CC1(C)C (centres unmarked) has what Dmax?
A) 40 to 70%

Q) // lookup Dmax for COc1cc(-c2cc(C)c(=O)n(C)c2)cc(OC)c1CN1CCN(Cc2cccc(C3CCCN3C(=O)/C(C#N)=C/C(C)(C)C)c2)CC1 (mixture of isomers)
A) > 75%

Q) Which Dmax value belongs to COc1cc(-c2cn(C)c(=O)c(C)c2C)cc(OC)c1CN1CCN(Cc2cccc3c2CCN(C(=O)/C(C#N)=C/c2cccc(C#N)c2)C3C)CC1 (mixture of isomers) ?
A) 40 to 70%

Q) Look at this compound and give its reported Dmax. CCC1c2cccc(CN3CCN(Cc4c(OC)cc(-c5cn(C)c(=O)c(C)c5C)cc4OC)CC34CC4)c2CCN1C(=O)/C(C#N)=C/C(C)(C)C (mixture of isomers) [Compound C15]
A) > 75%

We now examine a further compound.
Q) What does the record list as Dmax for COc1cc(-c2cn(C)c(=O)c(C)c2C)cc(OC)c1CN1CCN(Cc2cccc3c2CCN(C(=O)/C(C#N)=C/C(C)(C)C)C3C)C(=O)C1 (mixture of isomers) ?
A) 40 to 70%

====

- Tested target: UniProt Q9H8M2
- Assay protocol: BRD9 degradation, HiBiT-BRD9 KI HEK293 (LgBiT) cells, NanoGlo Lytic Endpoint assay (Assay Protocol 1)
- Format: cell-based
- Condition info: HEK293; Table 2; BRD9 degradation, Assay Protocol 1; 1 μM compound at 6 h of treatment; read-out: Assay 1 Dmax
Here, each record is paired with measured Dmax at 1 µM data.

Below, each entry is followed by its recorded Dmax at 1 µM result.
Q) Please look up its Dmax at 1 µM: COc1cc(-c2cc(C)c(=O)n(C)c2)cc(OC)c1CN1CCN(Cc2cccc3c2CCN(C(=O)/C(C#N)=C/c2cccc(Br)n2)C3C)CC1 (mixture of isomers)
A) 40 to 70%

Q) Give the measured Dmax at 1 µM of COc1cc(-c2cn(C)c(=O)c3cnccc23)cc(OC)c1CN(C)Cc1ccc2c(c1)CCN(C(=O)/C(C#N)=C/c1cccc(Br)n1)C2C (mixture of isomers) .
A) 40 to 70%

Now examine the next entry.
Q) Look up Dmax at 1 µM for this compound: COc1cc(-c2cn(C)c(=O)c3cnccc23)cc(OC)c1CN1CCN(Cc2cccc3c2CCN(C(=O)/C(C#N)=C/C(C)(C)C)C3C)CC1 (mixture of isomers)
A) 40 to 70%

====

- Tested target: BRD9 (Homo sapiens)
- Sequence (Q9H8M2 1-597): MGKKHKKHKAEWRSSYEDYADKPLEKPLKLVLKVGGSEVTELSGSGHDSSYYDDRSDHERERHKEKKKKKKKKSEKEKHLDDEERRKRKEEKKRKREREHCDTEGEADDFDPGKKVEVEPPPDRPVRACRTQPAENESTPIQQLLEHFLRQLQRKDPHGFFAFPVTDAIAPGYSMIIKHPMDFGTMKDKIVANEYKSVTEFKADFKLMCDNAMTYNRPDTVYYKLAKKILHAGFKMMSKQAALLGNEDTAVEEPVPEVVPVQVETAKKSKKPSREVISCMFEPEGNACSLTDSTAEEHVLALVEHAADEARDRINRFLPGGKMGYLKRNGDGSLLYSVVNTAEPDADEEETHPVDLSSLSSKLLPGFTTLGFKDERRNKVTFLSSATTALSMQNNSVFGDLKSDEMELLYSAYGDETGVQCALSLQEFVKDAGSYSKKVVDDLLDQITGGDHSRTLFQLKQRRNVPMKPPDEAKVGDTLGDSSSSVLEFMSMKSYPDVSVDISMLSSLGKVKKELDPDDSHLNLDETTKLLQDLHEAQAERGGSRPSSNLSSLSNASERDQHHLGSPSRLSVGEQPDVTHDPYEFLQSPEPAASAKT
- Assay protocol: Degradation of BRD9 (IF), immunofluorescence in MV4-11 cells, 24 hours (Assay Protocol 2)
- Type: cell-based
- Design: A suspension of MV4-11 cells (ATCC CRL-9591) was prepared; host or cells: MV4-11
- Condition info: Assay protocol 2; BRD9 degradation; read-out: DC50
Known DC50 of a selection of molecules

Known results for molecules:
Q) Endpoint output: DC50 of COc1cc(-c2cn(C)c(=O)c(C)c2C)cc(OC)c1CN1CCN(CC(=O)NCCOc2cccc(C3CCCN3C(=O)/C(C#N)=C/c3nccs3)c2)CC1 (mixture of isomers) . Value?
A) 25 to 1000 nM

Q) Could you share which DC50 value was measured for COc1cc(-c2cn(C)c(=O)c(C)c2C)cc(OC)c1CN(C)C1CCN(C(=O)/C(C#N)=C/C23CC(C2)C3)CC1 (mixture of isomers) ?
A) 1.25 to 10 nM

Further cases:
Q) What value of DC50 has been recorded for this entry: COc1cc(-c2cn(C)c(=O)c(C)c2C)cc(OC)c1CN1CCN(Cc2cccc3c2CCN(C(=O)/C(C#N)=C/C(C)(C)C)C3C)C(C)(C)C1 (mixture of isomers)
A) 10 to 25 nM

Q) So what does the record say about DC50 for COc1cc(-c2cn(C)c(=O)c(C)c2C)cc(OC)c1CN1CCN(C(=O)CCCCOc2ccc3c(c2)C(C)N(C(=O)/C(C#N)=C/c2nccs2)CC3)CC1 (mixture of isomers) ?
A) 1.25 to 10 nM

Q) Using the record for COc1cc(-c2cn(C)c(=O)c(C)c2C)ccc1OC1CCN(Cc2cccc3c2CCN(C(=O)/C(C#N)=C/C(C)(C)C)C3C)CC1 (mixture of isomers) , report its DC50.
A) 1.25 to 10 nM

Recorded values, source patent US20260092061A1.
